// koff lookup, one value per entry
Biological target: T1, IL-18Rα/β heterodimer (Fc fused human IL-18Rα mixed with Fc fused human IL-18Rβ) (human, UniProt Q13478 19-329; O95256 20-356, limits assumed)
T1 construct: Alpha and beta Fc fusions were mixed and pre-incubated for 30 min before capture on anti-human IgG; also called alpha/beta heterodimer IL-18 receptor; heterodimeric human IL-18 receptor alpha (CD218a) and IL-18R accessory protein (IL-18RAP/CDw218b); not shown: Fc
T1 sequence (looked up) 1: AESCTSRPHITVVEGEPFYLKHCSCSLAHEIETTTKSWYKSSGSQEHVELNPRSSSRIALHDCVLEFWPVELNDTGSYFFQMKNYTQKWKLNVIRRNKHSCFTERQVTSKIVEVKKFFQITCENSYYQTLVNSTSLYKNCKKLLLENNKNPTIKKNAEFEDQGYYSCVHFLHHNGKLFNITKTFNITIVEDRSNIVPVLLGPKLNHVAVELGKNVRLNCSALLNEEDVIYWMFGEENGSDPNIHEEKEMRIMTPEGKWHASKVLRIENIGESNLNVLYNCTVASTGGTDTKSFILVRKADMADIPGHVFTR
T1 sequence (looked up) 2: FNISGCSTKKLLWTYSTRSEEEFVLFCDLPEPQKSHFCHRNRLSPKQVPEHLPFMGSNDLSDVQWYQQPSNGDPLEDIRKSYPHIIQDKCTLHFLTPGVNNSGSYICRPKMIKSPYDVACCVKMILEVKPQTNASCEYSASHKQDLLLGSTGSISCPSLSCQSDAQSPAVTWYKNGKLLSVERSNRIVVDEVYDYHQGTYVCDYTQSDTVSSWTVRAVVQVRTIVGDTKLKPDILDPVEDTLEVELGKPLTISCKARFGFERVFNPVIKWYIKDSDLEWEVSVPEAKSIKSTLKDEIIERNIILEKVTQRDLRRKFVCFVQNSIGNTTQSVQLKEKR
Experiment: SPR, Fc-IL-18Rα/β captured, heterogeneous ligand fit
Give the number; s⁻¹ is assumed, so skip it.

Some entries whose results are on file:
BINDER	UNITS_SYMBOL	koff
IL-18 variant SEQ ID NO: 60 (E6K, C38Q, K53A) (ligand) YFGKLKSKLSVIRNLNDQVLFIDQGNRPLFEDMTDSDQRDNAPRTIFIISMYADSQPRGMAVTISVKCEKISTLSCENKIISFKEMNPPDNIKDTKSDIIFFQRSVPGHDNKMQFESSSYEGYFLACEKERDLFKLILKKEDELGDRSIMFTVQNED	s⁻¹	0.000589
IL-18 variant SEQ ID NO: 30 with 10 kDa PEG (E6K, V11I, C38A, K53A, T63A, C76A, C127A, C68-10kPEG) (ligand, 10 kDa PEG on Cys 68 (C68-10kPEG), also called 30 + PEG10) YFGKLKSKLSIIRNLNDQVLFIDQGNRPLFEDMTDSDARDNAPRTIFIISMYADSQPRGMAVAISVKCEKISTLSAENKIISFKEMNPPDNIKDTKSDIIFFQRSVPGHDNKMQFESSSYEGYFLAAEKERDLFKLILKKEDELGDRSIMFTVQNED	s⁻¹	0.00105

Consider the additional binder presented here.
State its koff for this binder: IL-18 variant SEQ ID NO: 63 (E6K, C38A, K53A, C76A, C127A) (ligand) YFGKLKSKLSVIRNLNDQVLFIDQGNRPLFEDMTDSDARDNAPRTIFIISMYADSQPRGMAVTISVKCEKISTLSAENKIISFKEMNPPDNIKDTKSDIIFFQRSVPGHDNKMQFESSSYEGYFLAAEKERDLFKLILKKEDELGDRSIMFTVQNED
0.000467
